- Target entity: Recombinant human BRD4 containing dual bromodomains (BRD4-BD12 (1-477)) (Homo sapiens)
- Construct: Recombinant human BRD4 containing dual bromodomains (BRD4-BD12 (1-477))
- Protocol text: BRD4 Alphascreen binding assay
- Protocol: BRD4 Alphascreen Binding Assay Binding of compounds of Formula (I) with BRD4 was assessed using Alphascreen binding assay. The inhibition of the interaction between BRD4 and its acetylated target protein was measured quantitatively using recombinant BRD4 protein, an acetylated Histone 4 peptide, and AlphaScreen™ technology. […] The close proximity allows the singlet oxygen produced by laser excitation of the donor beads to reach the acceptor beads and generate a luminescence signal. […]
Value type: IC50

So what does the record say about IC50 for Cc1noc(C)c1-c1cnc2c(c1)c(-c1ccc(C(=O)O)cc1OC(F)(F)F)cn2-c1ccc(F)cc1 [P-0279] ?
1 to 8 µM

Recorded IC50 of Cc1noc(C)c1-c1cnc2c(c1)c(-c1cnn(C(C)(C)C(=O)O)c1)cn2C(c1ccccn1)C1CCCC1 (stereo not drawn) [P-0035] , please.
1 to 8 µM

Request the reported IC50 associated with CCOc1cccc(C#N)c1-n1cc(-c2ccccc2)c2ncc(-c3c(C)noc3C)cc21 [P-0206]
8 to 1000 µM

Value lookup for IC50; key = COc1nc(C(=O)O)ccc1-c1cn(C2CCOCC2)c2ncc(-c3c(C)noc3C)cc12 [P-0368]
8 to 1000 µM

// IC50 lookup, key: CCOc1cc(C(=O)O)nc(OCC)c1-c1cn(C2CCN(C(=O)OC(C)(C)C)CC2)c2ncc(-c3c(C)noc3C)cc12 [P-0433]
8 to 1000 µM

Fill in the blank: the reported IC50 of Cc1noc(C)c1-c1cnc2c(c1)c(-c1ccc(C(=O)O)cc1OC(F)(F)F)cn2S(=O)(=O)C1CC1 [P-0202] is ____.
1 to 8 µM

May I ask what IC50 has been recorded for CCOc1cc(C(=O)O)c(F)c(OCC)c1-c1cn(-c2ccc(F)cc2F)c2ncc(-c3c(C)noc3C)cc12 [P-0297] ?
8 to 1000 µM

Param item = Cc1noc(C)c1-c1cnc2c(c1)c(-c1cccc(C(=O)O)c1)cn2Cc1cccc(C(F)(F)F)c1 [P-0063] ; retrieve measured IC50.
8 to 1000 µM

Fill in: IC50 of Cc1noc(C)c1-c1cnc2c(c1)c(-c1cccc(C(=O)O)c1)cn2C(c1ccccn1)C1CCC1 (stereo not drawn) [P-0073] is ___
8 to 1000 µM

Recorded IC50 for Cc1noc(C)c1-c1cnc2c(c1)c(-c1c(Cl)cc(C(=O)O)cc1OC1CCC1)cn2C1CCOCC1 [P-0358] , please?
1 to 8 µM

Entry Cc1noc(C)c1-c1cnc2c(c1)c(-c1ccc(C(=O)O)cc1OC(F)(F)F)cn2C1CCS(=O)(=O)CC1 [P-0212] has what IC50?
8 to 1000 µM

I have this compound here, Cc1noc(C)c1-c1cnc2c(c1)c(-c1cc(C(=O)O)ccn1)cn2C(C)c1ccccn1 (stereo not drawn) [P-0124] , and I need its recorded IC50.
8 to 1000 µM

Would you mind telling me what IC50 value was observed for CCOc1cc(C(=O)O)cc(OC(C)C)c1-c1cn([C@@H](C)c2ccccn2)c2ncc(-c3c(C)noc3C)cc12 [P-0174] ?
8 to 1000 µM

I would be grateful if you could share the reported IC50 for Cc1noc(C)c1-c1cnc2c(c1)c(-c1c(Cl)cc(C(=O)O)cc1OC(F)(F)F)cn2-c1ccc(C2CC2)nc1 [P-0441] .
0.0001 to 1 µM

For the compound Cc1noc(C)c1-c1cnc2c(c1)c(-c1ccc(C(=O)O)cc1OC(C)C)cn2C1(C)CCOC1 (stereo not drawn) [P-0407] , what IC50 is on record?
8 to 1000 µM

Report IC50 for Cc1noc(C)c1-c1cnc2c(c1)c(-c1c(F)cc(C(=O)O)cc1OCC(F)F)cn2-c1ccccc1 [P-0327] please.
1 to 8 µM

Query: IC50; subject: Cc1noc(C)c1-c1cnc2c(-c3ccc(C(=O)O)c(F)c3)c(C(F)(F)F)n([C@@H](C)c3ccccn3)c2c1 [P-0242]
8 to 1000 µM

Requested field: IC50. Item: Cc1noc(C)c1-c1cnc2c(c1)c(-c1cccc(C(=O)NO)c1)cn2Cc1ccccc1 [P-0079]
1 to 8 µM

Which IC50 value is on record for Cc1noc(C)c1-c1cnc2c(c1)c(-c1ccc(C(=O)O)cc1OC1CC1)cn2-c1ncccc1C#N [P-0337] ?
8 to 1000 µM

May I ask what IC50 has been recorded for COc1ccc(-n2cc(CC3CCC3)c3ncc(-c4c(C)noc4C)cc32)cn1 [P-0134] ?
8 to 1000 µM

// query IC50 value for entry COc1ncc(-n2cc(-c3ccc(C(=O)O)cc3OC(F)(F)F)c3cc(-c4c(C)noc4C)cnc32)cn1 [P-0392]
1 to 8 µM

Provenance of the data: patent US11446287B2
